Test target: Zinc finger protein GLI1 (Mus musculus) (UniProt P47806)
Sequence (P47806 whole entry): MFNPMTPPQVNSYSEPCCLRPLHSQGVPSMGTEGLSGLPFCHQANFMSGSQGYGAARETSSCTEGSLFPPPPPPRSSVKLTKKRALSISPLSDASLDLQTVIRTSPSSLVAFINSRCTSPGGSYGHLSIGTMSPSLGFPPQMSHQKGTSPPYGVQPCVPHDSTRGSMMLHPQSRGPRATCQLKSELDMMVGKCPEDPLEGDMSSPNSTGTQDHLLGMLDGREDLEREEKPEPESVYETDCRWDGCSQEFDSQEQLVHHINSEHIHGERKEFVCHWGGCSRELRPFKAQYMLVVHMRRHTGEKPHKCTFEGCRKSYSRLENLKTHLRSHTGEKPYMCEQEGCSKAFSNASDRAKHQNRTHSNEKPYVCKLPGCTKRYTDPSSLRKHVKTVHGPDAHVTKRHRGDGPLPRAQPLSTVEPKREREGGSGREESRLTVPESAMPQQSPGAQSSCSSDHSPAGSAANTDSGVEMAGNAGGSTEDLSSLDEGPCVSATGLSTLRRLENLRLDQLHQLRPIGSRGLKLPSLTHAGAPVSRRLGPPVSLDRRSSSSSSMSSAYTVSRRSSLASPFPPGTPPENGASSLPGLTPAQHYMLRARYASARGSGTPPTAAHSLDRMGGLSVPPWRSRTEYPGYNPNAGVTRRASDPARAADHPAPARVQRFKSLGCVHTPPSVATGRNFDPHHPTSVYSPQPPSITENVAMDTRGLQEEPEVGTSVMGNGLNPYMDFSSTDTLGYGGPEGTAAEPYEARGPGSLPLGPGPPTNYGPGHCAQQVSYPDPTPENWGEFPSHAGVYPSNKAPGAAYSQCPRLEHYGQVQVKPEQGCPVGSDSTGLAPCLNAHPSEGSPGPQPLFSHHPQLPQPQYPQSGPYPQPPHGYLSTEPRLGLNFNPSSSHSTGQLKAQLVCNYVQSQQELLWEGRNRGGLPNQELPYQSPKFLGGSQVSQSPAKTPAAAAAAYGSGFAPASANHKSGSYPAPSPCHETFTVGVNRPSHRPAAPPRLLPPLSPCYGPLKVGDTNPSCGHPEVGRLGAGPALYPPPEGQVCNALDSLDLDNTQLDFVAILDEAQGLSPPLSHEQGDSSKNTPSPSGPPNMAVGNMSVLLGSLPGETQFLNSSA
Protocol: Inhibition of Gli1 transcriptional activity in Smo-/- mouse embroyonic fibroblasts up to 20 uM after 24 hrs by renilla luciferase reporter gene assay
Active and inactive are the calls of the source. The rule behind the calls is not given here.
Select the matching outcome among 1 (yes) for active, 0 (no) for inactive

The examples below pair each entry with its known result.
{"Substance smiles": "COc1cc(OC)c2c(=O)c(-c3ccc(OCc4ccccc4)c(OCc4ccccc4)c3)coc2c1", "Class label": "0 (no)"}
{"Substance smiles": "COc1cc(OC)c2c(=O)c(-c3ccc(OC)c(OCC=C(C)C)c3)coc2c1", "Class label": "1 (yes)"}
{"Substance smiles": "COc1cc(OC)c2c(=O)c(-c3ccc(OC)c(OCc4ccc(C(F)(F)F)cc4)c3)coc2c1", "Class label": "1 (yes)"}

Lab note: next molecule to report on.
[ask] # outcome recorded in this test, key = COc1cc(OC)c2c(=O)c(-c3ccc(OCc4ccc(C(F)(F)F)cc4)c(OC)c3)coc2c1
[reply] 0 (no)

These measurements were taken from ChEMBL document CHEMBL4270564.
